- assay target: cloned human M4 receptor (Homo sapiens)
- Sequence (P08173 1-479): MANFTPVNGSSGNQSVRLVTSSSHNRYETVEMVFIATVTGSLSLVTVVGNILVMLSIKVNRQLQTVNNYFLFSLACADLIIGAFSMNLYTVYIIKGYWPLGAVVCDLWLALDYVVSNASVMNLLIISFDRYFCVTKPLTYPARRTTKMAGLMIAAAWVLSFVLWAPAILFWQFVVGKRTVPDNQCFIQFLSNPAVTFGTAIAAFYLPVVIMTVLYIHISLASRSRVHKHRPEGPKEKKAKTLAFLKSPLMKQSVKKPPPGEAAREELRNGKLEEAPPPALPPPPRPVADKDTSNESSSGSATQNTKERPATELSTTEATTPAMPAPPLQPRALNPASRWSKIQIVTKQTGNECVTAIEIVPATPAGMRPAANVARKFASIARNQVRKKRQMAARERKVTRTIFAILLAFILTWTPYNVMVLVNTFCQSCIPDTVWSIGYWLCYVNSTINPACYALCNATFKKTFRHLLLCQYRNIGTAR
- test: hM4 receptor GTPγS binding
- test conditions: CHO membranes expressing hM4, [35S]GTPγS binding
The entries below come with measured EC50 values attached.

For orientation, consider the following solved cases.
molecule | assay result
O=C1CO[C@H]2CCCC[C@@H]2N1C1CCN(C2CCC(COCC(F)F)CC2)CC1 (single isomer, unassigned) [Example 26] | > 90 µM
O=C1CO[C@H]2CCCC[C@@H]2N1C1CCN(C2CCC(COCC(F)F)CC2)CC1 (single isomer, unassigned) [Example 27] | > 90 µM
CC(C)OCC1CCC(N2CCC(N3C(=O)CO[C@H]4CCC(F)(F)C[C@@H]43)CC2)CC1 (single isomer, unassigned) [Example 38] | > 90 µM
O=C1NC[C@H]2CCCC[C@@H]2N1C1CCN(C2CCC(COCC(F)F)CC2)CC1 (single isomer, unassigned) | > 90 µM
CCCOCC1CCC(N2CCC(N3C(=O)NC[C@H]4CCCC[C@@H]43)CC2)CC1 (single isomer, unassigned) [Example 01] | > 51.9 µM
CC(C)OCC1CCC(N2CCC(N3C(=O)CO[C@H]4CCCC[C@@H]43)CC2)CC1 (single isomer, unassigned) [Example 18] | > 24.9 µM

Now take the following molecule into account.
Input CCCOC1CCC(N2CCC(N3C(=O)CO[C@H]4CCCC[C@@H]43)CC2)CC1 (single isomer, unassigned) . Output EC50: > 90 µM

* * *

- assay target: UniProt P11229
- Sequence (P11229 whole entry): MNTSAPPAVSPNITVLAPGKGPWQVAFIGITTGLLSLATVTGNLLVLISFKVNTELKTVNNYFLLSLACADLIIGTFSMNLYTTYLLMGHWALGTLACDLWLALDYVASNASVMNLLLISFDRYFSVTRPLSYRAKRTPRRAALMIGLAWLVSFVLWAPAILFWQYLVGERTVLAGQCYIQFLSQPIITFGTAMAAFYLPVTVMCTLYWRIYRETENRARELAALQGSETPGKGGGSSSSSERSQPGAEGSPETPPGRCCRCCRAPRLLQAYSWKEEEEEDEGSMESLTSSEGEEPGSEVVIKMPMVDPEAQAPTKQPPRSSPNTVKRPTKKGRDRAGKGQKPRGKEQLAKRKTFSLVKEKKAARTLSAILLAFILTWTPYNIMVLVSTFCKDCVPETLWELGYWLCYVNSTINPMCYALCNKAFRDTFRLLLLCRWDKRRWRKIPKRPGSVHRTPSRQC
- test: Human M1 calcium mobilization FLIPR assay
- test conditions: hM1 expressed in CHO cells, intracellular Ca2+ release (FLIPR)
Category scheme (EC50): low bin = under 20 nM, mid bin = from 20 nM up to 80 nM, high bin = 80 nM and over

molecule | label
O=C1CO[C@@H]2CCCC[C@H]2N1C1CCN([C@H]2CC[C@@H](COCC3CC3)CC2)CC1 | high bin
C#CCOC1CCC(N2CCC(N3C(=O)NC[C@H]4CCCC[C@@H]43)CC2)CC1 (mixture of isomers) | mid bin
O=C1NC[C@H]2CCCC[C@@H]2N1C1CCN(C2CCCC2)CC1 | mid bin

Ask: Lab log: O=C1CO[C@H]2CCCC[C@@H]2N1C1CCN(C2CCC(COCC(F)F)CC2)CC1 (single isomer, unassigned) [Example 27] — assign EC50 category
Result: low bin

Ask: Assign a category based on measured EC50 for CCOCC1(C)CCC(N2CCC(N3C(=O)CO[C@H]4CCCC[C@@H]43)CC2)CC1 (single isomer, unassigned) [Example 30] and give only the class name.
Result: high bin

Ask: Which class is correct for the following molecule? CCOCC1CCC(N2CCC(N3C(=O)CO[C@H]4CCCC[C@@H]43)CC2)CC1 (single isomer, unassigned) [Example 13]
Result: low bin

Ask: Field: class (EC50) — entry: O=C1CO[C@@H]2CCC[C@@H]2N1C1CCN([C@H]2CC[C@@H](COCC3CC3)CC2)CC1
Result: high bin

Ask: Bin? CC(C)OCC1CCC(N2CCC(N3C(=O)NC[C@H]4CCCC[C@@H]43)CC2)CC1 (single isomer, unassigned) [Example 03]
Result: mid bin

Ask: Which band does O=C1CO[C@H]2CCCC[C@@H]2N1C1CCN(C2CCC(COCC3CC3)CC2)CC1 (single isomer, unassigned) [Example 23] fall in?
Result: mid bin

Ask: Lab note: which band did CCOC[C@@H]1CC[C@H](N2CCC(N3C(=O)CO[C@H]4CCCC[C@@H]43)CC2)C1 land in?
Result: low bin
